SUBJECT OF TEST: human AOC3 enzyme (recombinant CHO cells) (Homo sapiens)
Construct: expressed in transfected cells; host or cells: CHO cells
Sequence (Q16853 whole entry): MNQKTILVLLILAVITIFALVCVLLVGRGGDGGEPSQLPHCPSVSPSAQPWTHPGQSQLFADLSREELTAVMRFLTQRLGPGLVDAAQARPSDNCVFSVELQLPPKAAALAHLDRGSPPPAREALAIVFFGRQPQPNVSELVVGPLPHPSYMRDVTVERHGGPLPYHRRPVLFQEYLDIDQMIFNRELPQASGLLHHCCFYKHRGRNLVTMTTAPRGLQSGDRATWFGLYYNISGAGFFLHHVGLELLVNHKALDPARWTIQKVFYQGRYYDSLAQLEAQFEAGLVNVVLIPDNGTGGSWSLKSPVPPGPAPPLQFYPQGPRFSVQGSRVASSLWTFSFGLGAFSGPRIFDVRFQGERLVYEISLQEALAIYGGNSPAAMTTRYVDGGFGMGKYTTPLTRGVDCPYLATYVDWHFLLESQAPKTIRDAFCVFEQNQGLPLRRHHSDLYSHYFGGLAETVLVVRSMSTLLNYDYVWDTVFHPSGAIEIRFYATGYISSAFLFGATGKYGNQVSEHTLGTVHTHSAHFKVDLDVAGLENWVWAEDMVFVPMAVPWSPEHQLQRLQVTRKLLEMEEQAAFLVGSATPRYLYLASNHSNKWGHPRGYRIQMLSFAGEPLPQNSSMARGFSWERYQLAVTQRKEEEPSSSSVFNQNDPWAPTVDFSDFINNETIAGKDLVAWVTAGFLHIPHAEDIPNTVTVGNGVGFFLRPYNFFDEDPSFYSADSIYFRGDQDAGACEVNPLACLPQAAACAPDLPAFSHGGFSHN
MEASUREMENT DESCRIPTION: AOC3 biochemical assay (MAO-Glo), human enzyme
CONDITION LABEL: read-out: AOC3 IC50
Counter-ions that a name gives are not always drawn.
# IC50 annotations

MOLECULE	IC50 (µM)
CC1(O)CCN(S(=O)(=O)c2ccc(OC/C(=C\F)CN)nc2)CC1 [Example 41]	0.01
NC/C(=C/F)COc1ccc(S(=O)(=O)N2CC[C@@H](C(N)=O)C2)cn1 [Example 31]	0.004
NC/C(=C/F)COc1ccc(S(=O)(=O)N2CCC[C@@H]2C(N)=O)cn1 [Example 18]	0.05
CC1(C(=O)NC2CC2)CCN(S(=O)(=O)c2ccc(OC/C(=C\F)CN)nc2)CC1 [Example 56]	0.021
NC/C(=C/F)COc1ccc(S(=O)(=O)N2CCCCC2)cn1 [Example 38]	0.003
NC/C(=C/F)COc1ccc(S(=O)(=O)N2CC(C3CCN(C(=O)C4CC4)CC3)C2)cn1 [Example 26]	0.009
COCCNC(=O)CC1CCN(S(=O)(=O)c2ccc(OC/C(=C\F)CN)nc2)CC1 [Example 54]	0.019
CN(C)C(=O)CC1CCN(S(=O)(=O)c2ccc(OC/C(=C\F)CN)nc2)CC1 [Example 19]	0.009
CCNC(=O)CC1CCN(S(=O)(=O)c2ccc(OC/C(=C\F)CN)nc2)CC1 [Example 30]	0.015
CC(=O)NC1CCN(S(=O)(=O)c2ccc(OC/C(=C\F)CN)nc2)C1 (stereo not shown) [Example 12]	0.015
CC(=O)N1CC(C2CCN(S(=O)(=O)c3ccc(OC/C(=C\F)CN)nc3)CC2)C1 [Example 9]	0.015
NC/C(=C/F)COc1ccc(S(=O)(=O)N2CCC(CC(=O)O)CC2)cn1 [Example 44, trifluoroacetate]	0.11
CN(C)C(=O)C1CCN(S(=O)(=O)c2ccc(OC/C(=C\F)CN)nc2)CC1 [Example 17]	0.016
CN(C)C(=O)C1CN(S(=O)(=O)c2ccc(OC/C(=C\F)CN)nc2)C1 [Example 25]	0.013
NC/C(=C/F)COc1ccc(S(=O)(=O)N2CC[C@H](C(=O)N3CCOCC3)C2)cn1 [Example 21]	0.028
NC/C(=C/F)COc1ccc(S(=O)(=O)N2CCC(CC(=O)N3CC(O)C3)CC2)cn1 [Example 55]	0.017
NC/C(=C/F)COc1ccc(S(=O)(=O)N2CCC(C(N)=O)CC2)cn1 [Example 7]	0.004
CN1CCN(C2CCN(S(=O)(=O)c3ccc(OC/C(=C\F)CN)nc3)CC2)C1=O [Example 1, trifluoroacetate]	0.007
CC1(C(=O)NC2CCOCC2)CCN(S(=O)(=O)c2ccc(OC/C(=C\F)CN)nc2)CC1 [Example 48, trifluoroacetate]	0.033

----------
SUBJECT OF TEST: AOC1 (Homo sapiens)
Construct: purchased R&D Systems 8297-AO-010
Sequence (P19801 20-751): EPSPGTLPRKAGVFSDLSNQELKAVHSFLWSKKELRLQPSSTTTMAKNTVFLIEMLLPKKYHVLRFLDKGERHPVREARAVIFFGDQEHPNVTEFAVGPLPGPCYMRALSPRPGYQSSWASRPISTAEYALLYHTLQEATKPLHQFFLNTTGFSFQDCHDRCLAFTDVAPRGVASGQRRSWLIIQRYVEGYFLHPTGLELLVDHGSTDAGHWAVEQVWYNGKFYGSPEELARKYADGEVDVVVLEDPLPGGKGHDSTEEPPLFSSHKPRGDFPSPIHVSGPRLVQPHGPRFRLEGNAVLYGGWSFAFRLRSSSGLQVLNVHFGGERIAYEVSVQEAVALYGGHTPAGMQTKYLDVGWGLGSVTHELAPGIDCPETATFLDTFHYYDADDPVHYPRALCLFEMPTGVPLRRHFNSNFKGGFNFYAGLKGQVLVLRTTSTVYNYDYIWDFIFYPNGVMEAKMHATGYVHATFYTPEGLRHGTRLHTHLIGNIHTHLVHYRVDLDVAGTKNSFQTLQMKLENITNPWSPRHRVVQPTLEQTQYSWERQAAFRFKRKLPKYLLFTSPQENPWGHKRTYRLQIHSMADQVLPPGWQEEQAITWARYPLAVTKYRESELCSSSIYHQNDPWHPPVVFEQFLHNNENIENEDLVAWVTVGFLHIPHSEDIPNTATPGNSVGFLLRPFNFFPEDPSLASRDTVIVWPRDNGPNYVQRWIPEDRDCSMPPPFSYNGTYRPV
MEASUREMENT DESCRIPTION: AOC1 biochemical assay (Amplex Red)
CONDITION LABEL: read-out: AOC1 IC50
pIC50: −log10 of the molar value. Counter-ions that a name gives are not always drawn.
READOUT NAME: pIC50

MOLECULE	COMPARATIVE SIGN	RESULT NUMBER
NC/C(=C/F)COc1ccc(S(=O)(=O)N2CCC(CC(=O)O)CC2)cn1 [Example 44, trifluoroacetate]	<	4.30
CC1(O)CCN(S(=O)(=O)c2ccc(OC/C(=C\F)CN)nc2)CC1 [Example 41]	=	6.88
COC(=O)[C@H]1[C@@H]2CN(S(=O)(=O)c3ccc(OC/C(=C\F)CN)nc3)C[C@@H]21 [Example 35]	=	5.73
CN1CCN(C2CCN(S(=O)(=O)c3ccc(OC/C(=C\F)CN)nc3)CC2)C1=O [Example 1, trifluoroacetate]	=	4.82
NC/C(=C/F)COc1ccc(S(=O)(=O)N2CCC(C(=O)O)CC2)cn1 [Example 46]	<	4.30
CNC(=O)[C@@H]1[C@@H]2CN(S(=O)(=O)c3ccc(OC/C(=C\F)CN)nc3)C[C@@H]21 [Example 5]	=	5.91
CNC(=O)[C@@H]1CCN(S(=O)(=O)c2ccc(OC/C(=C\F)CN)nc2)C1 [Example 14]	=	5.67
NC/C(=C/F)COc1ccc(S(=O)(=O)N2CCC(C(=O)N3CCC3)CC2)cn1 [Example 10]	=	5.50
COC(=O)C1(C)CCN(S(=O)(=O)c2ccc(OC/C(=C\F)CN)nc2)CC1 [Example 36]	=	5.86
NC/C(=C/F)COc1ccc(S(=O)(=O)N2CCC[C@H]2C(N)=O)cn1 [Example 13]	=	6.18

----------
SUBJECT OF TEST: MAO-A (Homo sapiens, UniProt P21397)
Construct: purchased Sigma-Aldrich M7316
Sequence (P21397 whole entry): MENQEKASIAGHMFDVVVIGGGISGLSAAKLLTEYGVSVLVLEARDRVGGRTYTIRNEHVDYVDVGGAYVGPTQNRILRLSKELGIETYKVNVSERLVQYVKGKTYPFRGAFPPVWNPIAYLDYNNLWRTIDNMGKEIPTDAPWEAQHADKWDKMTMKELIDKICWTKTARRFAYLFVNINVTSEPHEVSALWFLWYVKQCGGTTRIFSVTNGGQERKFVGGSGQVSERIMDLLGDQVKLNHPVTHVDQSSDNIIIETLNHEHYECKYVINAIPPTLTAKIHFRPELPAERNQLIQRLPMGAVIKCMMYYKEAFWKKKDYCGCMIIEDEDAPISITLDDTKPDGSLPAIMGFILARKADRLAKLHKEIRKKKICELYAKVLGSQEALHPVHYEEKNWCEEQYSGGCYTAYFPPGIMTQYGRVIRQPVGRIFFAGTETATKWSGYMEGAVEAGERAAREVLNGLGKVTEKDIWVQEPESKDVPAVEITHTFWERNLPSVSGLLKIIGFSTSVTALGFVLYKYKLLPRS
MEASUREMENT DESCRIPTION: MAO-A biochemical assay (MAO-Glo)
CONDITION LABEL: IC50; read-out: MAO-A
pIC50: −log10 of the molar value. Structures can show the parent of a compound that is named as a salt.

COMPOUND	SUBJECT OF TEST	pIC50
CC1(C(N)=O)CCN(S(=O)(=O)c2ccc(OC/C(=C\F)CN)nc2)CC1 [Example 49]	MAO-A (Homo sapiens, UniProt P21397)	< 4.30
CNC(=O)[C@@H]1CCN(S(=O)(=O)c2ccc(OC/C(=C\F)CN)nc2)C1 [Example 14]	MAO-A (Homo sapiens, UniProt P21397)	< 4.30
NC/C(=C/F)COc1ccc(S(=O)(=O)N2CCC(CC(N)=O)CC2)cn1 [Example 50]	MAO-A (Homo sapiens, UniProt P21397)	4.53
NC/C(=C/F)COc1ccc(S(=O)(=O)N2CC[C@@H](C(N)=O)C2)cn1 [Example 31]	MAO-A (Homo sapiens, UniProt P21397)	< 4.30
CN(C)C(=O)CC1CCN(S(=O)(=O)c2ccc(OC/C(=C\F)CN)nc2)CC1 [Example 19]	MAO-A (Homo sapiens, UniProt P21397)	< 4.30
CN1CCN(C2CCN(S(=O)(=O)c3ccc(OC/C(=C\F)CN)nc3)CC2)C1=O [Example 1, trifluoroacetate]	MAO-A (Homo sapiens, UniProt P21397)	< 4.30
CNC(=O)[C@@]12C[C@@H]1CN(S(=O)(=O)c1ccc(OC/C(=C\F)CN)nc1)C2 [Example 29]	MAO-A (Homo sapiens, UniProt P21397)	< 4.30
CC1(O)CN(S(=O)(=O)c2ccc(OC/C(=C\F)CN)nc2)C1 [Example 16]	MAO-A (Homo sapiens, UniProt P21397)	4.89
CC(F)(F)CNC(=O)CC1CCN(S(=O)(=O)c2ccc(OC/C(=C\F)CN)nc2)CC1 [Example 51]	MAO-A (Homo sapiens, UniProt P21397)	4.70
COC(=O)C1CCN(S(=O)(=O)c2ccc(OC/C(=C\F)CN)nc2)CC1 [Example 34]	MAO-A (Homo sapiens, UniProt P21397)	4.82
CNC(=O)[C@H]1[C@@H]2CN(S(=O)(=O)c3ccc(OC/C(=C\F)CN)nc3)C[C@@H]21 [Example 27]	MAO-A (Homo sapiens, UniProt P21397)	< 4.30
CNC(=O)[C@H]1CCN(S(=O)(=O)c2ccc(OC/C(=C\F)CN)nc2)C1 [Example 11]	MAO-A (Homo sapiens, UniProt P21397)	< 4.30
NC/C(=C/F)COc1ccc(S(=O)(=O)N2CC[C@H](C(N)=O)C2)cn1 [Example 39]	MAO-A (Homo sapiens, UniProt P21397)	< 4.30
COC1CCN(S(=O)(=O)c2ccc(OC/C(=C\F)CN)nc2)CC1 [Example 40]	MAO-A (Homo sapiens, UniProt P21397)	< 4.30
COC(=O)C1(C)CCN(S(=O)(=O)c2ccc(OC/C(=C\F)CN)nc2)CC1 [Example 36]	MAO-A (Homo sapiens, UniProt P21397)	4.87
CC(=O)NCC1CCN(S(=O)(=O)c2ccc(OC/C(=C\F)CN)nc2)CC1 [Example 28]	MAO-A (Homo sapiens, UniProt P21397)	< 4.30
CC(C)(O)CNC(=O)[C@H]1CCN(S(=O)(=O)c2ccc(OC/C(=C\F)CN)nc2)C1 [Example 2]	MAO-A (Homo sapiens, UniProt P21397)	< 4.30
CN(C)C(=O)C1CCN(S(=O)(=O)c2ccc(OC/C(=C\F)CN)nc2)CC1 [Example 17]	MAO-A (Homo sapiens, UniProt P21397)	< 4.30

----------
SUBJECT OF TEST: AOC2 (Homo sapiens, UniProt O75106)
Construct: host or cells: HEK293 cells (transient transfection), cell homogenate
Sequence (O75106 whole entry): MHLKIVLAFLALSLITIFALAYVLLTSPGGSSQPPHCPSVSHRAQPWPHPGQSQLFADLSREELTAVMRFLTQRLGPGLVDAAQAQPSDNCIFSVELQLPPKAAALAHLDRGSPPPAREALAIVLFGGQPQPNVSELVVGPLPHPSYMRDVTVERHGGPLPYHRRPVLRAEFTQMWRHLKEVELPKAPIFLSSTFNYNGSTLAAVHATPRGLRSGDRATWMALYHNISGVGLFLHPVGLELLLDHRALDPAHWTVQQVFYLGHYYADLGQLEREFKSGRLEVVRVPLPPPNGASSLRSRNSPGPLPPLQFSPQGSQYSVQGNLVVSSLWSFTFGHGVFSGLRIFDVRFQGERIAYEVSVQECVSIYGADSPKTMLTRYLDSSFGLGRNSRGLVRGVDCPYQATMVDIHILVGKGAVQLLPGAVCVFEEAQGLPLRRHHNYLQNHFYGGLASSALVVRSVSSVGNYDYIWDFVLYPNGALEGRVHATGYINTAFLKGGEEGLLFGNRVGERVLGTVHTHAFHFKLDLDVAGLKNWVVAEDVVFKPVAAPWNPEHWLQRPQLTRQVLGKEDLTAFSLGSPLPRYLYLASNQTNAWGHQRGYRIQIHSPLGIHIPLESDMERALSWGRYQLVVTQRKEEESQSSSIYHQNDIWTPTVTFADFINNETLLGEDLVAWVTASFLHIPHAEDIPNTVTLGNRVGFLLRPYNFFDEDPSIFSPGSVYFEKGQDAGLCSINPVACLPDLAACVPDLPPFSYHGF
MEASUREMENT DESCRIPTION: AOC2 biochemical assay (Amplex Red)
CONDITION LABEL: read-out: AOC2 IC50
Structures can show the parent of a compound that is named as a salt.
Decide using IC50 alone. Strictly below 40 nM: Condition met. Equal to or above 40 nM: Condition not met.

MOLECULE	QUALITATIVE LABEL
CC1(C(N)=O)CCN(S(=O)(=O)c2ccc(OC/C(=C\F)CN)nc2)CC1 [Example 49]	Condition met
NC/C(=C/F)COc1ccc(S(=O)(=O)N2CCC(C(=O)O)CC2)cn1 [Example 46]	Condition not met
CCNC(=O)CC1CCN(S(=O)(=O)c2ccc(OC/C(=C\F)CN)nc2)CC1 [Example 30]	Condition not met
CN(C)C(=O)[C@H]1CCN(S(=O)(=O)c2ccc(OC/C(=C\F)CN)nc2)C1 [Example 4]	Condition not met
CC(=O)NCC1CCN(S(=O)(=O)c2ccc(OC/C(=C\F)CN)nc2)CC1 [Example 28]	Condition not met
CC(=O)N[C@H]1CCCN(S(=O)(=O)c2ccc(OC/C(=C\F)CN)nc2)C1 [Example 6]	Condition not met
CCNC(=O)C1(C)CCN(S(=O)(=O)c2ccc(OC/C(=C\F)CN)nc2)CC1 [Example 23]	Condition not met
CN(C)C(=O)C1CCN(S(=O)(=O)c2ccc(OC/C(=C\F)CN)nc2)CC1 [Example 17]	Condition not met
CN(C)C(=O)CC1CCN(S(=O)(=O)c2ccc(OC/C(=C\F)CN)nc2)CC1 [Example 19]	Condition not met
CNC(=O)[C@@H]1[C@@H]2CN(S(=O)(=O)c3ccc(OC/C(=C\F)CN)nc3)C[C@@H]21 [Example 5]	Condition not met
NC/C(=C/F)COc1ccc(S(=O)(=O)N2CCC[C@@H]2C(N)=O)cn1 [Example 18]	Condition not met
NC/C(=C/F)COc1ccc(S(=O)(=O)N2CC(C3CCN(C(=O)C4CC4)CC3)C2)cn1 [Example 26]	Condition not met
NC/C(=C/F)COc1ccc(S(=O)(=O)N2CCC(C(=O)N3CCC3)CC2)cn1 [Example 10]	Condition not met
NC/C(=C/F)COc1ccc(S(=O)(=O)N2C[C@H]3C[C@@]3(C(=O)N3CCOCC3)C2)cn1 [Example 22]	Condition not met
NC/C(=C/F)COc1ccc(S(=O)(=O)N2CC[C@H](C(N)=O)C2)cn1 [Example 39]	Condition not met
NC/C(=C/F)COc1ccc(S(=O)(=O)N2CCC(CC(=O)O)CC2)cn1 [Example 44, trifluoroacetate]	Condition met
CC1(C(=O)O)CCN(S(=O)(=O)c2ccc(OC/C(=C\F)CN)nc2)CC1 [Example 47]	Condition met
